- Test system: HCC-2998 colon
- runDescription: NCI-60 one-dose screen, 48 h
- conditionDescription: 10 µM unless noted
The panel holds about 83,000 compounds, 20% with a hit somewhere; the sample as a whole holds those more often. Calls of active or inactive are those of the source. How the source made its calls: active means growth percent below 10; inactive means the rest.
Return exactly one item of active, inactive

Below, 2 compounds whose answers are already recorded.
CCn1c(=O)c2c(=O)c3c4c(oc3oc2c2ccccc21)C(=O)c1ccccc1C4=O; inactive
O=c1oc2cc(OS(=O)(=O)c3ccc(F)cc3)ccc2c2c1CCCCC2; inactive

Challenge: Could you kindly confirm the outcome this assay logged for COc1ccc(/C=C/C(=O)c2cccc(B(O)O)c2)cc1O ?
Response given: inactive

Challenge: Could you kindly confirm the outcome this assay logged for O=Nc1c(-c2c(O)[nH]c3ccc([N+](=O)[O-])cc23)[nH]c2ccc(O)cc12 ?
Response given: active

###

The following compounds are listed with their measured growth values.
- System: NCI-H226 lung
- runDescription: NCI-60 one-dose screen, 48 h (100 = growth as untreated, 0 = no growth, -100 = all killed)
- conditionDescription: 10 µM unless noted
The panel holds about 83,000 compounds, 20% with a hit somewhere; the sample as a whole holds those more often.
Write the number in % without appending the unit.

Look over these answered cases.
COc1ccc(NC(=O)c2cc3ccccc3nc2Nc2cc(OC)c(OC)c(OC)c2)cc1; 54.5
FC(F)(F)c1cccc(-n2nnc3cnc(Nc4ccc(N5CCCCC5)cc4)nc32)c1; 92.4
Cc1cnc(NC(=O)C(Cc2ccccc2)NC(=O)c2ccccc2)s1 (centres undefined); 70.2
C=CC(=O)N[C@H](/C=C/C(=O)OCC)Cc1ccc(-c2cc(Cl)cc(Cl)c2)cc1; 68.9
COc1cc(-n2nc(C(=O)Nc3ccc(C(=O)O)cc3)nc2-c2ccccc2)cc(OC)c1OC; 103
CN(C)c1nc(N)c(N=O)c(N)n1; 112
CC(C)[C@H](CO)Nc1nc(Nc2ccc(C(=O)NCCNS(=O)(=O)c3cccc4c(N(C)C)cccc34)c(Cl)c2)c2ncn(C(C)C)c2n1; 22
O=[N+]([O-])c1cc(S(=O)(=O)OCC2CO2)ccc1Cl (centres undefined); 110

# evaluate next
Challenge: Bench note: what growth did COc1ccc(-c2nc3sccn3c2-c2ccnc(NCCCNS(=O)(=O)c3ccc(C)cc3)n2)cc1 show?
Response given: 13.7

###

- System: OVCAR-5 ovarian
- runDescription: NCI-60 one-dose screen, 48 h (100 = growth as untreated, 0 = no growth, -100 = all killed)
- conditionDescription: 10 µM unless noted
The panel holds about 83,000 compounds, 20% with a hit somewhere; the sample as a whole holds those more often.
Assign true whenever growth does not fall below 90%; assign false whenever it does.

Below, 4 compounds whose answers are already recorded.
Cc1cc2c(C(C)C)c(O)c(O)c(C=NCCCCC(=O)O)c2c(O)c1-c1c(C)cc2c(C(C)C)c(O)c(O)c(C=NCCCCC(=O)O)c2c1O; false
COc1cc(CNC(=O)CCSc2nc3ccccc3c(=O)n2Cc2cc(OC)c(OC)c(OC)c2)cc(OC)c1OC; false
NC(=S)NN=C1CCCCC1; true
CN1CCN(CCCOc2ccc3nc(Nc4ccc(C(F)(F)F)c(Cl)c4)ccc3c2)CC1; false

Challenge: Hi, just wondering whether COc1cccc2nc(Nc3ccc(NC(=O)c4ccc5ncccc5c4)cc3)ccc12 shows growth of 90% or higher.
Response given: true

Challenge: Hi, just wondering whether CCc1c(C(=O)Nc2ccc3ccccc3c2)[nH]c(C)c1C(C)=O shows growth of 90% or higher.
Response given: true

Challenge: Hi, just wondering whether CCCCCCCCCN1C(=O)/C(=c2\sc3n(c2=O)C2C(NN=3)N(CC)C(=O)N2CC)c2ccccc21 (centres undefined) shows growth of 90% or higher.
Response given: false

Challenge: Hi, just wondering whether COc1ncc(-c2ccc3ncnc(Nc4cccc(Cl)c4)c3c2)cc1NS(=O)(=O)CCN1CCOCC1 shows growth of 90% or higher.
Response given: false

###

The following compounds are listed with their measured growth values.
- Test system: HS 578T breast
- runDescription: NCI-60 one-dose screen, 48 h (100 = growth as untreated, 0 = no growth, -100 = all killed)
- conditionDescription: 10 µM unless noted
Compounds without any hit were thinned out: in the full panel of roughly 83,000, 20% have a hit.
Write the number in % without appending the unit.

Look over these answered cases.
CC(=O)Nc1ccc(S(=O)(=O)N2C(=O)CCC2C(=O)Nc2ccc(Br)cc2)cc1 (stereo not given); 56.6
COc1ccc(-c2nc3sccn3c2-c2ccnc(NCCNS(=O)(=O)c3ccc(C(F)(F)F)cc3)n2)cc1; 41
CCOC(=O)c1cc(/C(=N\O)c2cc(OC)c(OC)c(OC)c2)n2c(C)cccc12; 12.4
COc1cccc(NC(=O)c2sc3nc4c(cc3c2N)CCCC4)c1; 48
CCOC(=O)[C@H](CSSc1ncnc2cc[nH]c12)NC(=O)[C@@H](C)c1ccc2cc(OC)ccc2c1; 59
Nc1c(C(=O)Nc2cccc(Cl)c2Cl)sc2nc3c(cc12)C(=O)CCC3; 88.2
O=[N+]([O-])c1ccc(S(=O)(=O)N2CCN(c3ccnc4cc(Cl)ccc34)CC2)c([N+](=O)[O-])c1; 89.1
COc1ccc(-c2nc3sccn3c2-c2ccnc(NCCCNS(=O)(=O)c3ccc(F)cc3)n2)cc1; 32.5

Challenge: Bench note: what growth did CCc1c(C(=O)Nc2ccc3ccccc3c2)[nH]c(C)c1C(C)=O show?
Response given: 98.5

Challenge: Bench note: what growth did COc1cc(NC(=O)CCl)ccc(=O)c1 show?
Response given: 72.2

###

- Test system: HCC-2998 colon
- runDescription: NCI-60 one-dose screen, 48 h (100 = growth as untreated, 0 = no growth, -100 = all killed)
- conditionDescription: 10 µM unless noted
Compounds without any hit were thinned out: in the full panel of roughly 83,000, 20% have a hit. Calls of active or inactive are those of the source. The calls were made as follows: active = growth percent below 10; inactive = the rest.
The following compounds are listed with their measured growth values.

Challenge: Bench note: what growth did CC(=O)Nc1ccc(S(=O)(=O)N2C(=O)CCC2C(=O)Nc2ccc(Br)cc2)cc1 (stereo not given) show?
Response given: 49.4% (inactive)

Challenge: Bench note: what growth did CCOC(=O)c1cc(/C(=N\O)c2cc(OC)c(OC)c(OC)c2)n2c(C)cccc12 show?
Response given: 70.8% (inactive)

###

- System: UACC-62 melanoma
- runDescription: NCI-60 one-dose screen, 48 h (100 = growth as untreated, 0 = no growth, -100 = all killed)
- conditionDescription: 10 µM unless noted
About 83,000 compounds went through this panel and 20% of them were active in at least one assay; those are over-represented in the sample as a whole.
// assign T if growth falls strictly below 80%, else F (ties count as F)

CCOC(=O)C1=C(CSC(=S)N(C2CCCCC2)C2CCCCC2)N(C)C(=O)NC1c1ccccc1 (stereo unspecified); T

Challenge: Does COc1ccc(OC)c(/C=C2\Oc3cc(OCCN4CCCC4)ccc3C2=O)c1 have growth strictly under 80%?
Response given: F

Challenge: Does CCC1CCc2nc3sc(C(=O)Nc4ccccc4C)c(N)c3cc2C1 (stereo unspecified) have growth strictly under 80%?
Response given: T

Challenge: Does COc1cc(Cn2c(SCCC(=O)Nc3ccc(F)cc3)nc3ccccc3c2=O)cc(OC)c1OC have growth strictly under 80%?
Response given: T

Challenge: Does COc1ccc(/C=C/c2nc(N3CCOCC3)c3nc(Cl)c(Cl)cc3n2)cc1OC have growth strictly under 80%?
Response given: F

Challenge: Does CCc1c(C(=O)Nc2ccc3ccccc3c2)[nH]c(C)c1C(C)=O have growth strictly under 80%?
Response given: F

Challenge: Does COc1cccc(NC(=O)c2sc3nc4c(cc3c2N)CCCC4)c1 have growth strictly under 80%?
Response given: T

###

- Test system: DU-145 prostate
- runDescription: NCI-60 one-dose screen, 48 h (100 = growth as untreated, 0 = no growth, -100 = all killed)
- conditionDescription: 10 µM unless noted
The panel holds about 83,000 compounds, 20% with a hit somewhere; the sample as a whole holds those more often.
measurementKind: growth (%)
Write the number in % without appending the unit.

COc1ccc(NC(=O)/N=c2\oc3c(OC)cccc3cc2-c2cc3ccccc3[nH]2)cc1; 69.3

Challenge: Bench note: what growth did O=C(CCl)NCCNc1nccc(Nc2ccc(S(=O)(=O)Nc3ccccn3)cc2)n1 show?
Response given: 14.4

Challenge: Bench note: what growth did Cc1c(C(=O)NCc2ccccc2)[n+](=O)c2cc(F)ccc2n1[O-] show?
Response given: 99.8

Challenge: Bench note: what growth did O=C(O)Cc1ccc2c(c1)Cc1cccnc1O2 show?
Response given: 107

Challenge: Bench note: what growth did Cc1ccc(Cn2c(-c3cccs3)nc3ccccc32)cc1 show?
Response given: 110

Challenge: Bench note: what growth did O=C(O)C(=Cc1c2ccccc2cc2ccccc12)C(=O)O show?
Response given: 118

Challenge: Bench note: what growth did O=C(Nc1cccc(C(F)(F)F)c1)Nc1ccc(OCc2nnc(-c3ccccc3)o2)c(F)c1 show?
Response given: 31.9

Challenge: Bench note: what growth did Cn1c(=O)c2c(nc3n2CCN(CCc2ccc(OCCN4CCOCC4)cc2)C3)n(C)c1=O show?
Response given: 109

Challenge: Bench note: what growth did COc1cc(/C=C2\C=C(c3ccc(F)cc3)N(Cc3ccccc3)C2=O)cc(OC)c1OC show?
Response given: 94.8

Challenge: Bench note: what growth did Clc1cccc(Cl)c1Cn1c(-c2cncs2)nc2ccccc21 show?
Response given: 110
